- ASSAY COMMENT: Plasma half-life after oral administration in four dog breeds (Study 2)
- Format: in vivo
- EXPERIMENTAL SETUP: both sexes, Anglo-French hound, po, 2 mg/kg, oral 2 mg/kg, Anglo-French hounds (n = 10), read-out: plasma half-life, Maximum (converted)
- Description: Four different sized-breeds from four different private breeders were tested (ten individuals were used from each breed): Anglo-French Hounds, Pointers, Cavalier King Charles Spaniels and Bernese Mountain Dogs. […] Plasma samples were analyzed by a High Performance Liquid Chromatography (HPLC) method using ultraviolet (UV) detection. […] The validated limit of quantification was 0.01 μg/mL. […]
RESULT TYPE: half-life (h)
Your answer is read as h, so omit the unit and give the number.

Reported half-life of "COc1ccc(-c2c(Cl)ncn2-c2ccc(S(N)(=O)=O)cc2)cc1F" : 4

* * *

- ASSAY COMMENT: Plasma pharmacokinetics after single intravenous administration in beagle dogs
- Type: in vivo, dog
- EXPERIMENTAL SETUP: beagle, dog, plasma, iv, 2 mg/kg, Poor metabolizers (n = 4), mean ± SD
RESULT TYPE: AUC (ng·h/mL)
Number in ng·h/mL, nothing else.

Sure, the documented AUC for "COc1ccc(-c2c(Cl)ncn2-c2ccc(S(N)(=O)=O)cc2)cc1F" is 19200

* * *

- ASSAY COMMENT: Plasma half-life after oral administration in four dog breeds (Study 2)
- Format: in vivo
- EXPERIMENTAL SETUP: both sexes, Cavalier King Charles spaniel, po, 2 mg/kg, oral 2 mg/kg, Cavalier King Charles spaniels (n = 10), read-out: plasma half-life, Maximum (converted)
RESULT TYPE: half-life (h)
Reply numerically in h, unit not repeated.

molecule "COc1ccc(-c2c(Cl)ncn2-c2ccc(S(N)(=O)=O)cc2)cc1F" , half-life observed: 3.5

* * *

- ASSAY COMMENT: Plasma pharmacokinetics after single intravenous administration in beagle dogs
- Assay type: in vivo, dog
- EXPERIMENTAL SETUP: beagle, dog, plasma, iv, 2 mg/kg, Poor metabolizers (n = 4), mean ± SD, read-out: V (volume of distribution)
RESULT TYPE: Vd (L/kg)
Write the value in L/kg as a bare number.

Sample COc1ccc(-c2c(Cl)ncn2-c2ccc(S(N)(=O)=O)cc2)cc1F [cimicoxib] ; Vd observed: 0.89

* * *

- ASSAY COMMENT: Plasma pharmacokinetics after single intravenous administration in beagle dogs
- Assay type: in vivo, dog
- EXPERIMENTAL SETUP: beagle, dog, plasma, iv, 2 mg/kg, Extensive metabolizers (n = 8), mean ± SD, read-out: V (volume of distribution)
RESULT TYPE: Vd (L/kg)
Response body: numeric value in L/kg, unit text excluded.

Value of measured Vd for the entry "COc1ccc(-c2c(Cl)ncn2-c2ccc(S(N)(=O)=O)cc2)cc1F" : 1.12

* * *

- ASSAY COMMENT: Plasma pharmacokinetics after single intravenous administration in beagle dogs
- Type: in vivo, dog
- EXPERIMENTAL SETUP: beagle, dog, plasma, iv, 2 mg/kg, Poor metabolizers (n = 4), mean ± SD, read-out: HL (plasma half-life) (converted)
RESULT TYPE: half-life (h)
Lab book: enter the figure in h, no units written.

Per the record, COc1ccc(-c2c(Cl)ncn2-c2ccc(S(N)(=O)=O)cc2)cc1F [cimicoxib] has half-life of 5.6

* * *

- ASSAY COMMENT: Plasma pharmacokinetics after single intravenous administration in beagle dogs
- Assay type: in vivo, dog
- EXPERIMENTAL SETUP: beagle, dog, plasma, iv, 2 mg/kg, Extensive metabolizers (n = 8), mean ± SD, read-out: CL (plasma clearance) (converted)
RESULT TYPE: clearance (mL/min/kg)
Numbers only here, please. The scale is mL/min/kg.

The reported value for "COc1ccc(-c2c(Cl)ncn2-c2ccc(S(N)(=O)=O)cc2)cc1F" in terms of clearance is 5.17

* * *

- ASSAY COMMENT: Plasma half-life after oral administration in four dog breeds (Study 2)
- Assay type: in vivo
- EXPERIMENTAL SETUP: both sexes, Bernese mountain dog, po, 2 mg/kg, oral 2 mg/kg, Bernese mountain dogs (n = 10), read-out: plasma half-life, Maximum (converted)
RESULT TYPE: half-life (h)
Please respond with the number in h and leave the unit unwritten.

Recorded result, COc1ccc(-c2c(Cl)ncn2-c2ccc(S(N)(=O)=O)cc2)cc1F [cimicoxib] , half-life: 5.8

* * *

- ASSAY COMMENT: Plasma half-life after oral administration in four dog breeds (Study 2)
- Type: in vivo
- EXPERIMENTAL SETUP: both sexes, Bernese mountain dog, po, 2 mg/kg, oral 2 mg/kg, Bernese mountain dogs (n = 10), read-out: plasma half-life, Mean (converted)
RESULT TYPE: half-life (h)
Enter your answer as a number in h; do not include the unit.

Note to self: half-life recorded for COc1ccc(-c2c(Cl)ncn2-c2ccc(S(N)(=O)=O)cc2)cc1F [cimicoxib] was 4.4

* * *

- ASSAY COMMENT: Plasma pharmacokinetics after single oral administration in beagle dogs (Study 1)
- Assay type: in vivo, dog
- EXPERIMENTAL SETUP: beagle, dog, plasma, po, 2 mg/kg, EM beagle dogs (n = 8), mean ± SD, read-out: terminal half-life (converted)
RESULT TYPE: half-life (h)
Kindly answer with a numeric value in h, unit omitted.

Quick note, half-life for "COc1ccc(-c2c(Cl)ncn2-c2ccc(S(N)(=O)=O)cc2)cc1F" landed at 4.6

* * *

- ASSAY COMMENT: Plasma pharmacokinetics after single intravenous administration in beagle dogs
- Format: in vivo, dog
- EXPERIMENTAL SETUP: beagle, dog, plasma, iv, 2 mg/kg, Extensive metabolizers (n = 8), mean ± SD, read-out: HL (plasma half-life) (converted)
RESULT TYPE: half-life (min)
Respond with the bare value in min.

So, "COc1ccc(-c2c(Cl)ncn2-c2ccc(S(N)(=O)=O)cc2)cc1F" ? Its half-life was 162

* * *

- ASSAY COMMENT: Plasma half-life after oral administration in four dog breeds (Study 2)
- Format: in vivo
- EXPERIMENTAL SETUP: both sexes, Pointer, po, 2 mg/kg, oral 2 mg/kg, Pointers (n = 10), read-out: plasma half-life, Mean (converted)
RESULT TYPE: half-life
# include the unit after the value

Summary for this compound, "COc1ccc(-c2c(Cl)ncn2-c2ccc(S(N)(=O)=O)cc2)cc1F" : half-life is 234 min

* * *

- ASSAY COMMENT: Plasma half-life after oral administration in four dog breeds (Study 2)
- Type: in vivo
- EXPERIMENTAL SETUP: both sexes, Anglo-French hound, po, 2 mg/kg, oral 2 mg/kg, Anglo-French hounds (n = 10), read-out: plasma half-life, Minimum (converted)
RESULT TYPE: half-life (h)
Write it as a number; the unit h goes unstated.

# molecule "COc1ccc(-c2c(Cl)ncn2-c2ccc(S(N)(=O)=O)cc2)cc1F" ; its half-life = 2
